Tested on: human tumor cell lines
Experiment: In vitro cancer screen (SRB; GI50, TGI, LC50)
Conditions: read-out: LC50; SK-MEL-28 (Melanoma)
observationType: CC50 (µM)

                                 smilesdata         targetundertest  unitssymbol  datavalue
0  COc1cc(F)c(F)c(Nc2ccc(I)cc2F)c1NS(=O)(=O)C1(C[C@H](O)CO)CC1  human tumor cell lines           µM       22.4

* * *

Test: Concentration-time profiles after a single dose of capsules
Design: species or system human cancer patients
Details: human, in vivo, oral; capsules of example 95A, 4 mg dose, Day 1; read-out: AUC0-12hr
observationType: AUC(0-t) (ng·h/mL)

                                 smilesdata  unitssymbol  datavalue
0  COc1cc(F)c(F)c(Nc2ccc(I)cc2F)c1NS(=O)(=O)C1(C[C@H](O)CO)CC1      ng·h/mL       2.26

* * *

Experiment: Plasma concentrations in mice (Example 94F)
Assay type: in vivo, nu/nu mice
Details: female, nu/nu, mouse, plasma, po, 25 mg/kg, A375-bearing nu/nu mice
observationType: AUC (µg·h/mL)

In [3]: df
Out[3]:
                                 smilesdata  observationtype  unitssymbol  datavalue
0  COc1cc(F)c(F)c(Nc2ccc(I)cc2F)c1NS(=O)(=O)C1(C[C@H](O)CO)CC1              AUC      µg·h/mL        117

* * *

Assay: Concentration-time profiles after a single dose of capsules
Parameters: species or system human cancer patients
Details: human, in vivo, oral, 2 mg, capsules of example 95A, 2 mg dose, Day 1
observationType: Tmax (h)

>>> df
                                 smilesdata  datavalue
0  COc1cc(F)c(F)c(Nc2ccc(I)cc2F)c1NS(=O)(=O)C1(C[C@H](O)CO)CC1          2

* * *

Tested on: human tumor cell lines
Experiment: In vitro cancer screen (SRB; GI50, TGI, LC50)
Settings: read-out: LC50; UACC-62 (Melanoma)
observationType: CC50 (µM)

>>> df
                                 smilesdata  datavalue
0  COc1cc(F)c(F)c(Nc2ccc(I)cc2F)c1NS(=O)(=O)C1(C[C@H](O)CO)CC1       20.9

* * *

Tested on: human tumor cell lines
Experiment: In vitro cancer screen (SRB; GI50, TGI, LC50)
Conditions: read-out: LC50; SF-539 (CNS Cancer)
observationType: CC50 (µM)

>>> df
                                 smilesdata  unitssymbol  datavalue
0  COc1cc(F)c(F)c(Nc2ccc(I)cc2F)c1NS(=O)(=O)C1(C[C@H](O)CO)CC1           µM       60.3

* * *

Test: Concentration-time profiles after a single dose of capsules
Parameters: species or system human cancer patients
Conditions: human, in vivo, oral; capsules of example 95A, 10 mg dose, Day 35
observationType: AUC (ng·h/mL)

In [3]: df
Out[3]:
                                   compound  observationtype  datavalue
0  COc1cc(F)c(F)c(Nc2ccc(I)cc2F)c1NS(=O)(=O)C1(C[C@H](O)CO)CC1 [Compound A]              AUC       14.3

* * *

In this section we review reported EC50 values for a set of compounds.
Tested on: phosphorylated ERK in MDA-MB-231 breast cancer cells
Assay: Generation of EC50 data: Western blotting for phosphorylated ERK in EGF-stimulated cells
Type: cell-based
Details: Homo sapiens; EC50 classes per legend (pERK, MDA-MB-231 cells); classes D and F also cite IC50
observationType: EC50

In [3]: df
Out[3]:
                                    compound  observationtype     datavalue
 0  COCCOc1cc(F)c(F)c(Nc2ccc(I)cc2F)c1NS(=O)(=O)C1(CC(O)CO)CC1 (stereo not shown)             EC50  15 to 100 nM
 1  O=S(=O)(Nc1c(F)cc(F)c(F)c1Nc1ccc(I)cc1F)C1(C[C@H](O)CO)CC1             EC50    2 to 15 nM
 2  O=S(=O)(Nc1ccc(F)c(F)c1Nc1ccc(I)cc1F)c1ccccc1             EC50  15 to 100 nM
 3  O=S(=O)(Nc1ccc(F)c(F)c1Nc1ccc(I)cc1F)C1CC1             EC50        < 2 nM
 4  COc1cc(F)c(F)c(Nc2ccc(I)cc2F)c1NS(=O)(=O)C1(CC(O)CO)CC1 (racemic)             EC50        < 2 nM
 5  O=S(=O)(Nc1c(F)cc(F)c(F)c1Nc1ccc(I)cc1F)C1(CC(O)CO)CC1 (racemic)             EC50        < 2 nM
 6  O=S(=O)(Nc1ccc(F)c(F)c1Nc1ccc(I)cc1F)C1CCCCC1             EC50  15 to 100 nM
 7  COc1cc(F)c(F)c(Nc2ccc(I)cc2F)c1NS(=O)(=O)C1(C[C@@H](O)CO)CC1             EC50    2 to 15 nM
 8  COc1cc(F)c(F)c(Nc2ccc(I)cc2F)c1NS(=O)(=O)C1(C[C@H](O)CO)CC1             EC50        < 2 nM
 9  O=S(=O)(Nc1ccc(F)c(F)c1Nc1ccc(I)cc1F)C1(CCO)CC1             EC50        < 2 nM
10  CC(C)(C)S(=O)(=O)Nc1ccc(F)c(F)c1Nc1ccc(I)cc1F             EC50  15 to 100 nM
11  O=S(=O)(Nc1ccc(F)c(F)c1Nc1ccc(I)cc1F)C1(CC(O)CO)CC1 (racemic)             EC50        < 2 nM
12  O=S(=O)(Nc1ccc(F)c(F)c1Nc1ccc(I)cc1F)c1ccccc1F             EC50      > 100 nM

* * *

Test: Concentration-time profiles after a single dose of capsules
Design: species or system human cancer patients
Settings: human, in vivo, oral, 2 mg, capsules of example 95A, 2 mg dose, Day 35
observationType: Cmax (ng/mL)

>>> df
                                 smilesdata  datavalue
0  COc1cc(F)c(F)c(Nc2ccc(I)cc2F)c1NS(=O)(=O)C1(C[C@H](O)CO)CC1      0.202

* * *

Assay: Plasma concentrations in mice (Example 94F)
Type: in vivo, nu/nu mice
Details: female, nu/nu, mouse, plasma, po, 50 mg/kg, A375-bearing nu/nu mice, oral; column 1, no head (b1249 order: 50 mg/kg QD)
observationType: Cmax (ng/mL)

>>> df
                                 smilesdata  unitssymbol  datavalue
0  COc1cc(F)c(F)c(Nc2ccc(I)cc2F)c1NS(=O)(=O)C1(C[C@H](O)CO)CC1        ng/mL      23800

* * *

Test: Concentration-time profiles after a single dose of capsules
Set-up: species or system human cancer patients
Conditions: human, in vivo, oral, 4 mg, capsules of example 95A, 4 mg dose, Day 35
observationType: Cmax (ng/mL)

>>> df
                                   compound  unitssymbol  datavalue
0  COc1cc(F)c(F)c(Nc2ccc(I)cc2F)c1NS(=O)(=O)C1(C[C@H](O)CO)CC1 [Compound A]        ng/mL      0.544

* * *

Test system: phosphorylated ERK in MDA-MB-231 breast cancer cells
Assay: Generation of EC50 data: Western blotting for phosphorylated ERK in EGF-stimulated cells
Format: cell-based
Conditions: Homo sapiens; EC50 classes per legend (pERK, MDA-MB-231 cells); classes D and F also cite IC50
pEC50: −log10 of the molar value.
observationType: pEC50

>>> df
                                 smilesdata                           targetundertest     datavalue
0  Cc1cc(I)ccc1Nc1c(NS(=O)(=O)C2CC2)ccc(F)c1F  phosphorylated ERK in MDA-MB-231 breast cancer cells  7.82 to 8.70
1  O=S(=O)(Nc1c(F)cc(F)c(F)c1Nc1ccc(I)cc1F)C1(C[C@@H](O)CO)CC1  phosphorylated ERK in MDA-MB-231 breast cancer cells  7.82 to 8.70
2  Cc1ccc(S(=O)(=O)Nc2ccc(F)c(F)c2Nc2ccc(I)cc2F)s1  phosphorylated ERK in MDA-MB-231 breast cancer cells  7.00 to 7.82
3  CC1(S(=O)(=O)Nc2ccc(F)c(F)c2Nc2ccc(I)cc2F)CC1  phosphorylated ERK in MDA-MB-231 breast cancer cells  7.82 to 8.70
4  COc1cc(F)c(F)c(Nc2ccc(I)cc2F)c1NS(=O)(=O)C1(CCO)CC1  phosphorylated ERK in MDA-MB-231 breast cancer cells        > 8.70
5  COc1cc(F)c(F)c(Nc2ccc(I)cc2F)c1NS(=O)(=O)C1CC1  phosphorylated ERK in MDA-MB-231 breast cancer cells  7.82 to 8.70
6  O=S(=O)(Nc1ccc(F)c(F)c1Nc1ccc(I)cc1F)c1ccco1  phosphorylated ERK in MDA-MB-231 breast cancer cells  7.00 to 7.82
7  O=S(=O)(Nc1c(F)cc(F)c(F)c1Nc1ccc(I)cc1F)C1CC1  phosphorylated ERK in MDA-MB-231 breast cancer cells  7.00 to 7.82
8  CC(C)S(=O)(=O)Nc1ccc(F)c(F)c1Nc1ccc(I)cc1F  phosphorylated ERK in MDA-MB-231 breast cancer cells  7.82 to 8.70
